Target: HfsK (CC3689) (Caulobacter vibrioides, UniProt Q9A277)
Construct: full length; His-tagged (ITC) or StrepII-tagged (mutants, UV cross-linking), expressed in E. coli; tags kept as far as told
Test: isothermal titration calorimetry
Excerpt: isothermal titration calorimetry on HfsK (CC3689) | His-CC3689 bound c-di-GMP in a concentration-dependent manner with an equilibrium disassociation constant (Kd)
MEASURE: Kd (nM)
Dear colleague, please return just the value in nM, with no unit written.

### Prompt Fill blank: measured Kd of the compound Nc1nc2c(ncn2[C@@H]2O[C@@H]3COP(=O)(O)O[C@H]4[C@@H](O)[C@H](n5cnc6c(=O)[nH]c(N)nc65)O[C@@H]4COP(=O)(O)O[C@H]3[C@H]2O)c(=O)[nH]1 [c-di-GMP] is ____.
### Response 724
